This collection of values is drawn from ChEMBL document CHEMBL1671863.

# Assay method text: Inhibition of beta-lactamase OXA-1 expressed in Escherichia coli BL21 (DE3) using nitrocefin substrate by spectrophotometry
Can you tell me Ki for the items I'm about to list?
Please respond with the number in nM and leave the unit unwritten.

What measured Ki goes with `C[C@]1(Cn2ccnn2)[C@H](C(=O)O)N2C(=O)C[C@H]2S1(=O)=O` ?
80000

GET /values?readout=Ki&item= `O=C(O)C1=CS[C@@H]2/C(=C\c3cc4n(n3)CSCC4)C(=O)N12`
12

Need Ki, item `O=C(O)C1=CS[C@@H]2/C(=C\c3cc4n(n3)CSC4)C(=O)N12`
45
